tested on: Fibroblast; test: Multiplex assay against human fibroblast; format: toxicity, cell-based; details: 12 h, 1 µM, compound concentration 1 uM, replicate 2
Outcome measure: Population Tubulin-Different-Phenotype (%)

compound=C=CC(=O)Nc1ccc2ncnc(Nc3ccc(OCc4cccc(F)c4)c(Cl)c3)c2c1.Cc1ccc(S(=O)(=O)O)cc1 system=Fibroblast assay_value=29%
compound="c1cn2cc(-c3ccc4cn[nH]c4c3)nc(Nc3ccc(N4CCOCC4)cc3)c2n1 [ENTOSPLETINIB]" system=Fibroblast assay_value=25%

Exercise: Sample Cc1nc(Nc2n[nH]c3c2CN(C(=O)N[C@H](CN(C)C)c2ccccc2)C3(C)C)c2sccc2n1 [PF-03758309] — what was its Population Tubulin-Different-Phenotype (%)?
Solution: 13%

Exercise: Would you kindly repeat that for Cl.N#Cc1ccc2[nH]cc(CCCCN3CCN(c4ccc5oc(C(N)=O)cc5c4)CC3)c2c1 [VILAZODONE HYDROCHLORIDE] ?
Solution: 18%

---

tested on: U2OS; test: Multiplex assay against U2OS; type: toxicity, cell-based; conditions: human, 24 h, 1 µM, compound concentration 1 uM, replicate 2
Examples of compounds with documented Population Mitochondria Different-Phenotype (%) follow.
Form entry: enter the amount, then its unit.

// known answers, use as guide
compound=CN1CCN(CCOc2cc(OC3CCOCC3)c3c(Nc4c(Cl)ccc5c4OCO5)ncnc3c2)CC1 assay_value=13%
compound=C=CC(=O)Nc1cccc(C(=O)Nc2ccc(Nc3cc(-c4[nH]c(SC)nc4C)ccn3)cc2)c1 assay_value=10%
compound=COc1cc(-n2cnc3cc(-c4ccc(Cl)cc4)sc3c2=O)ccc1OCCN1CCCC1 assay_value=25%
compound=Cc1nc(-c2cn3c(n2)-c2ccc(-c4cnn(C(C)(C)C(N)=O)c4)cc2OCC3)n(C(C)C)n1 assay_value=6%
compound=CN(C)C(=O)/C(C#N)=C/c1ccc(-c2nc3cnc4[nH]ccc4c3n2C2CCCCC2)o1 assay_value=10%
compound="O=C1NCN(c2ccccc2)C12CCN(CCCOc1ccc(F)cc1)CC2 [SPIRAMIDE]" assay_value=7%
compound="COc1cccc([C@@H](C)NCCCc2ccccc2Cl)c1.Cl [TECALCET HYDROCHLORIDE]" assay_value=6%

// moving on: another record for Population Mitochondria Different-Phenotype (%)
Exercise: Missing value: Population Mitochondria Different-Phenotype (%), U2OS, entry CC[C@H](C)C(=O)O[C@H]1C[C@@H](C)C=C2C=C[C@H](C)[C@H](CC[C@@H]3C[C@@H](O)CC(=O)O3)[C@H]21 . Fill in?
Solution: 4%

---

Examples of compounds with documented Population Pyknosed Nuclei (%) follow.
test system: Fibroblast; test: Multiplex assay against human fibroblast; assay type: toxicity, cell-based; conditions: 12 h, 10 µM, compound concentration 10 uM, replicate 2
# number only, unit % dropped from output

// known answers, use as guide
compound=CNc1nc(NCc2ccc(NS(C)(=O)=O)cc2Cl)cc(-c2ccccn2)n1 outcome_measure="Population Pyknosed Nuclei (%)" assay_value=11
compound=C=CC(=O)Nc1cccc(C(=O)Nc2ccc(Nc3cc(-c4[nH]c(SC)nc4C)ccn3)cc2)c1 outcome_measure="Population Pyknosed Nuclei (%)" assay_value=10
compound=COc1cc2nccc(Oc3ccc(NC(=O)Nc4cc(C)on4)c(Cl)c3)c2cc1OC.O outcome_measure="Population Pyknosed Nuclei (%)" assay_value=12

Exercise: Sample COc1ncc(-c2ccc3nccc(-c4ccnnc4)c3c2)cc1NS(=O)(=O)c1ccc(F)cc1F — what was its Population Pyknosed Nuclei (%)?
Solution: 39

Exercise: Would you kindly repeat that for COc1cc(-n2cnc3cc(-c4ccc(Cl)cc4)sc3c2=O)ccc1OCCN1CCCC1 ?
Solution: 19

Exercise: Would you kindly repeat that for CC[C@H](C)C(=O)O[C@H]1C[C@@H](C)C=C2C=C[C@H](C)[C@H](CC[C@@H]3C[C@@H](O)CC(=O)O3)[C@H]21 ?
Solution: 4

Exercise: Would you kindly repeat that for CN1CCCC(n2nc(Cc3ccc(Cl)cc3)c3ccccc3c2=O)CC1.Cl (stereo unspecified) [AZELASTINE HYDROCHLORIDE] ?
Solution: 15

Exercise: Would you kindly repeat that for CN1CCN(CCOc2cc(OC3CCOCC3)c3c(Nc4c(Cl)ccc5c4OCO5)ncnc3c2)CC1 ?
Solution: 18

Exercise: Would you kindly repeat that for COc1cccc([C@@H](C)NCCCc2ccccc2Cl)c1.Cl [TECALCET HYDROCHLORIDE] ?
Solution: 17

Exercise: Would you kindly repeat that for CN(C)CC#Cc1ccc(OCCCc2sc(N3CCc4cccc(C(=O)Nc5nc6ccccc6s5)c4C3)nc2C(=O)O)c(F)c1 ?
Solution: 23

Exercise: Would you kindly repeat that for Cc1nc(-c2ccc(-c3ccc(C(=O)N4CCc5cc6c(cc54)C4(CCN(C)CC4)CO6)cc3)c(C)c2)no1 ?
Solution: 15

Entry source: ChEMBL document CHEMBL4689842
